Test system: 7G8
Assay: qHTS profiling for inhibitors of Plasmodium falciparum proliferation (AID 504749); also: nearly all actives have a fitted effect of over 60% in size
Conditions: P. falciparum in erythrocytes, SYBR Green DNA, 72 h; series mostly up to 28.7 µM
Inconclusive results are not listed. Active and inactive are the calls of the source. Calls follow the shape of the dose curve; as a rule, active = well fitted inhibition curve with a large enough effect; inconclusive = small, poorly fitted or top-dose-only effect; inactive = flat fitted curve, though single readings scatter.
// classify into active, inactive

Solved cases below.
>>> classification("COc1ccc2[nH]c(S(=O)Cc3ncc(C)c(OC)c3C)nc2n1 (stereo not given)")
"active"
>>> classification("NC(=O)N/N=C/c1ccc([N+](=O)[O-])o1")
"active"

# input For this molecule, state the assay outcome: O=c1cc[nH]c(=O)[nH]1
# output inactive

# input // return assay outcome for C[C@H](N)[C@H](O)c1cccc(O)c1
# output inactive

# input Dear all, I need the recorded test outcome for CC(C(O)c1ccc(O)cc1)N1CCC(Cc2ccccc2)CC1 (stereo not given) , thank you.
# output active

# input I'd appreciate the recorded outcome for C[C@]12C[C@H](O)[C@H]3[C@@H](CCC4=CC(=O)CC[C@@]43C)[C@@H]1CC[C@@H]2C(=O)CO from this test.
# output inactive

# input Hello, I am checking results. What call was entered for CNCCCC1c2ccccc2C=Cc2ccccc21 ?
# output active

# input // outcome(item) with item = O=C(O)CN1C(=O)c2cccc3cccc(c23)C1=O
# output inactive

# input Check the results log: what was the call for CC1(C)CO[C@@H](CC(=O)O)CN1 ?
# output inactive

# input Status in this test for CCCn1cnc2c1c(=O)n(CCCCC(C)=O)c(=O)n2C ?
# output active

# input Kindly provide the recorded test outcome for the following molecule: C=Cc1c(C)c2cc3[nH]c(cc4nc(cc5nc(cc1[nH]2)C(C)=C5CCC(=O)O)C(CCC(=O)O)=C4C)c(C)c3C=C
# output inactive

# input Entry CN(C)CCN(Cc1ccccc1)c1ccccn1 : call = ?
# output inactive

# input Can you look up the reported call for CCn1cc(C(=O)O)c(=O)c2cnc(N3CCNCC3)nc21 for me?
# output inactive

# input Per the records of this test, what outcome belongs to C#CCN(C)Cc1ccccc1 ?
# output inactive

---

Test: Stat Signaling Pathway (AID 446);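 also: ME-180 cervical cancer cells given 40 pM IL-6 alongside compound; SIE-controlled beta-lactamase reporter measured as 460/530 nm FRET emission ratio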
Conditions: ME-180 (cervical carcinoma) SIE beta-lactamase reporter, IL-6 stimulated, 5 h; at 17.2 µM (top of the series)
Experimental: NCGC Assay Overview: The IL-6/STAT signaling pathway was assayed in ME-180 cervical carcinoma cells by a beta-lactamase reporter gene controlled by a STAT Inducible Element (SIE). This reporter is induced by IL-6 at 40 pM AC50 and inhibited by the pan JAK inhibitor, 2-(1,1-Dimethylethyl)-9-fluoro-3,6-dihydro-7H-benz[h]-imidaz[4,5-f]isoquinolin-7-one, at approximately 10 nM AC50. Plated cells were incubated overnight and on the following day, stimulated with 40 pM IL-6 for 5 hrs. […]
Inconclusive results are not listed. Calls of active or inactive are those of the source. The call rests on the fitted dose curve; in most records, active means well fitted curve in either direction with a large enough effect (not every such curve was filed as active); inconclusive means small, poorly fitted or top-dose-only effect, or another doubt; inactive means flat fitted curve, though single readings scatter.
Could you please pick one outcome from this set? active, inactive

>>> classification("CNCCC(Oc1ccc(C(F)(F)F)cc1)c1ccccc1 (stereo not drawn)")
"inactive"
>>> classification("C[C@]12CC[C@@H]3c4ccc(O)cc4CC[C@H]3[C@@H]1CCC2=O")
"inactive"

With those in mind, consider the next compound.
# input How did this test come out for CC[C@H]1CN2CCc3cc(OC)c(OC)cc3[C@@H]2C[C@@H]1C[C@H]1NCCc2cc(OC)c(OC)cc21 ?
# output active

Origin of the recorded values: PubChem BioAssay (NCATS)
